- Test system: KM12
- assay-protocol: NCI tumour cell line growth inhibition, 48 h
Structures can show the parent of a compound that is named as a salt. The source made the active and inactive calls. Cut-off read from the data, not from the text of the source: active = GI50 up to about 1.1 µM and inactive = higher.
molecules and their reported GI50

molecule	assay-target	val
CCCSc1cc(Cl)c(C)cc1S(=O)(=O)n1ccnc1OCCCN(C)C	KM12	> 100 µM (inactive)
CC(CCOc1c2ccoc2cc2oc(=O)ccc12)C1=CC(=O)C(C)(C)O1 (stereo not given)	KM12	> 100 µM (inactive)
Cc1nnc(SCc2nc(C#N)c(C#N)nc2CSc2nnc(C)s2)s1	KM12	19.3 µM (inactive)
Cn1cnc([N+](=O)[O-])c1Sc1nc(N)nc2c1ncn2[C@H]1C[C@H](O)[C@@H](CO)O1	KM12	2.77 µM (inactive)
Nc1nc(Cl)cc(NC2(CO)CCC2)n1	KM12	> 100 µM (inactive)

GI50 in this record for `C[C@H]1[C@H](N2CCCC2)O[Si](C(C)(C)C)(C(C)(C)C)[C@@H]1C` : > 100 µM (inactive)

GI50 reading for COC(=O)C1=C(C[S+]([O-])c2ccccc2[N+](=O)[O-])ON(C)C1c1ccccc1 (stereo not given) : 55.5 µM (inactive)

Note to self: GI50 recorded for `N#Cc1c(C#N)c(-c2ccccc2)n(Cc2ccccc2)c1N` was > 100 µM (inactive)

The recorded GI50 for entry `CC(=O)C1(Cc2cccc3ccccc23)S(=O)(=O)OCCOS1(=O)=O` equals 15.4 µM (inactive)

Record summary for O=C(CC1(O)C(=O)Nc2ccc(Br)cc21)c1cccc([N+](=O)[O-])c1 (stereo not given) : reported GI50 = 42.6 µM (inactive)

Entry `CC1(C)N=C(/C=N/O)C(C)(C)N1O` , GI50 reported as > 100 µM (inactive)

The recorded GI50 for `Cc1cc2nc(O)c(CCC(=O)O)nc2cc1C` is > 100 µM (inactive)

For reference, reported GI50 for CNNCc1ccc(C(=O)NC(C)C)cc1 [PROCARBAZINE HYDROCHLORIDE] stands at > 500 µM (inactive)

Reported GI50 ( CN1CCc2cc(O)c3cc2C1Cc1ccc(cc1)Oc1cc(ccc1O)CC1c2c(cc4c(c2O3)OCO4)CCN1C (stereo not given) ) = 29.9 µM (inactive)

Recorded result, `Nc1nc(Cl)c(N)c(NC23CC4CC(CC(C4)C2)C3)n1` , GI50: 1.73 µM (inactive)

// recorded GI50 for `CC1CC2C3CCC4=CC(=O)C=CC4(C)C3(F)C(O)CC2(C)C1(O)C(=O)CO.Cc1nnc(NS(=O)(=O)c2ccc(/N=N/c3cc(/N=N/c4ccc(S(=O)(=O)Nc5nnc(C)s5)cc4)c4c(NC(=O)C(Cl)Cl)cccc4c3OC(=O)C(Cl)Cl)cc2)s1` : 23.6 µM (inactive)

Note to self: GI50 recorded for Cc1ccccc1NC(=O)C(=O)C(C#N)c1ccccc1C (stereo not given) was > 100 µM (inactive)

GET /value?item= `O=[N+]([O-])c1ccc(/N=N/c2c(O)ccc3cc(S(=O)(=O)O)ccc23)cc1` &field=GI50 returns > 100 µM (inactive)

Given item CN1c2ccccc2C2=C(c3ccccc3)CC[C@@H](C(=O)N3C4CC5CC[C@@]4(CS3(=O)=O)C5(C)C)[C@@H]21 (stereo not given in full) , the value recorded as its GI50 is > 100 µM (inactive)

The reported value for `COc1c(/C=C/C=O)cc2c(c1OC)OCO2` in terms of GI50 is 12 µM (inactive)

// field: GI50; key: `FC(F)(F)C1(Br)C(c2ccccc2)=C1c1ccccc1` ; value = 15.8 µM (inactive)

// GI50 lookup, molecule = COC(=O)C1=Cc2cc(OC)c(OC)c(OC)c2[C@H](c2cc(OC)c(OC)c(OC)c2)C1C(=O)OC (stereo not given in full) , result: > 100 µM (inactive)
